- System: Streptococcus agalactiae
- experiment-notes: Antimicrobial activity against Streptococcus agalactiae clinical isolates by broth microdilution method
- Type: functional
Listing of recorded MIC90 by entry.
reported-metric: MIC90 (µg/mL)

compound	comparison-sign	data-value
CN[C@H](CC(C)C)C(=O)N[C@H]1C(=O)N[C@@H](CC(N)=O)C(=O)N[C@H]2C(=O)N[C@H]3C(=O)N[C@H](C(=O)N[C@H](C(=O)O)c4cc(O)cc(O)c4-c4cc3ccc4O)[C@H](O[C@H]3C[C@](C)(N)[C@@H](O)[C@H](C)O3)c3ccc(c(Cl)c3)Oc3cc2cc(c3O[C@@H]2O[C@H](CO)[C@@H](O)[C@H](O)[C@H]2O[C@H]2C[C@](C)(NCc3ccc(-c4ccc(Cl)cc4)cc3)[C@@H](O)[C@H](C)O2)Oc2ccc(cc2Cl)[C@H]1O [ORITAVANCIN]	=	0.25
CC1(C)S[C@@H]2[C@H](NC(=O)Cc3ccccc3)C(=O)N2[C@H]1C(=O)O [PENICILLIN G]	=	0.06
CN[C@H](CC(C)C)C(=O)N[C@H]1C(=O)N[C@@H](CC(N)=O)C(=O)N[C@H]2C(=O)N[C@H]3C(=O)N[C@H](C(=O)N[C@H](C(=O)O)c4cc(O)cc(O)c4-c4cc3ccc4O)[C@H](O)c3ccc(c(Cl)c3)Oc3cc2cc(c3O[C@@H]2O[C@H](CO)[C@@H](O)[C@H](O)[C@H]2O[C@H]2C[C@](C)(N)[C@H](O)[C@H](C)O2)Oc2ccc(cc2Cl)[C@H]1O [VANCOMYCIN]	=	0.5
CCC[C@@H]1C[C@@H](C(=O)N[C@@H]([C@H]2O[C@H](SC)[C@H](O)[C@@H](O)[C@H]2O)[C@H](C)Cl)N(C)C1 [CLINDAMYCIN]	>	1
CC[C@H]1OC(=O)[C@H](C)[C@@H](O[C@H]2C[C@@](C)(OC)[C@@H](O)[C@H](C)O2)[C@H](C)[C@@H](O[C@@H]2O[C@H](C)C[C@H](N(C)C)[C@H]2O)[C@](C)(O)C[C@@H](C)C(=O)[C@H](C)[C@@H](O)[C@]1(C)O [ERYTHROMYCIN]	>	2
C[C@H]1COc2c(N3CCN(C)CC3)c(F)cc3c(=O)c(C(=O)O)cn1c23.C[C@H]1COc2c(N3CCN(C)CC3)c(F)cc3c(=O)c(C(=O)O)cn1c23.O [LEVOFLOXACIN]	=	1

====

- System: Enterococcus faecium
- experiment-notes: Antimicrobial activity against vancomycin-nonsusceptible Enterococcus faecium clinical isolates assessed as resistant isolates by broth microdilution method
- Format: functional
Recorded Activity values for a group of compounds are listed next.
reported-metric: Activity (%)

smiles-data	reported-metric	data-value
CN[C@@H]1[C@H](O[C@H]2[C@H](O[C@H]3[C@H](O)[C@@H](O)[C@H](N=C(N)N)[C@@H](O)[C@@H]3N=C(N)N)O[C@@H](C)[C@]2(O)C=O)O[C@@H](CO)[C@H](O)[C@H]1O	Activity	63.5
CC1(C)S[C@@H]2[C@H](NC(=O)[C@H](N)c3ccccc3)C(=O)N2[C@H]1C(=O)O	Activity	98.5
C[C@H]1COc2c(N3CCN(C)CC3)c(F)cc3c(=O)c(C(=O)O)cn1c23.C[C@H]1COc2c(N3CCN(C)CC3)c(F)cc3c(=O)c(C(=O)O)cn1c23.O	Activity	99.8
CC(=O)NC[C@H]1CN(c2ccc(N3CCOCC3)c(F)c2)C(=O)O1	Activity	0.6
